Test system: 953936-095-R-J2-PDC spheroids with HUVEC/MSC, viability
Test: Anticancer human tumor 953936-095-R-J2-PDC patient-derived cervical squamous cell carcinoma cell line growth inhibition [PI3K]
Details: second compound 3.16 µM; first compound 3.16 µM; stronger effect = lower value
From the text: Combinatorial screen of targeted agents with the PI3K inhibitors inavolisib, alpelisib, duvelisib, and copanlisib in multi-cell type tumor spheroids A high-throughput screen of multi-cell type tumor spheroids was designed to identify active combinations of targeted small molecules and PI3K pathway inhibitors. […] Compounds. […] If the clinical Cmax for an agent had not been determined, the highest concentration tested was 10 microM. […]
quantity: viability, T/C (%)

{"molecule": "Cn1nccc1Nc1nccc(-c2ccn(C(CO)c3ccc(Cl)c(F)c3)c(=O)c2)n1 (stereo not given) + Cc1nc(NC(=O)N2CCCC2C(N)=O)sc1-c1ccnc(C(C)(C)C(F)(F)F)c1", "quantity": "viability, T/C", "readoutValue": 15.2}
{"molecule": "Cn1nccc1Nc1nccc(-c2ccn(C(CO)c3ccc(Cl)c(F)c3)c(=O)c2)n1 (stereo not given) + CC(Nc1ncnc2nc[nH]c12)c1cc2cccc(Cl)c2c(=O)n1-c1ccccc1", "quantity": "viability, T/C", "readoutValue": 68.8}
{"molecule": "CNC(=O)c1ccc(N2C(=S)N(c3ccc(C#N)c(C(F)(F)F)c3)C(=O)C2(C)C)cc1F + CC(Nc1ncnc2nc[nH]c12)c1cc2cccc(Cl)c2c(=O)n1-c1ccccc1", "quantity": "viability, T/C", "readoutValue": 82.1}
{"molecule": "CC(Cn1ccc(-c2ccc(C#N)c(Cl)c2)n1)NC(=O)c1cc(C(C)O)[nH]n1 (stereo not given) + CC(Nc1ncnc2nc[nH]c12)c1cc2cccc(Cl)c2c(=O)n1-c1ccccc1", "quantity": "viability, T/C", "readoutValue": 79.9}
{"molecule": "C=CC(=O)N1CCN(c2nc(=O)n(-c3c(C)ccnc3C(C)C)c3nc(-c4c(O)cccc4F)c(F)cc23)C(C)C1 (stereo not given) + Cc1nc(NC(=O)N2CCCC2C(N)=O)sc1-c1ccnc(C(C)(C)C(F)(F)F)c1", "quantity": "viability, T/C", "readoutValue": 33.4}

---

Listing: viability, T/C of selected compounds
Test system: 953936-095-R-J2-PDC spheroids with HUVEC/MSC, viability
Assay: Anticancer human tumor 953936-095-R-J2-PDC cell line growth inhibition [PI3K];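 also: spheroids exposed to compounds for seven days before read-out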
Details: second compound 0.0316 µM; first compound 0.0316 µM; stronger effect = lower value
quantity: viability, T/C (%)

{"compound": "Cn1ncnc1[C@H]1c2n[nH]c(=O)c3cc(F)cc(c23)N[C@@H]1c1ccc(F)cc1 + COc1c(OCCCN2CCOCC2)ccc2c3n(c(=NC(=O)c4cnc(N)nc4)nc12)CCN3", "measurementUnits": "%", "readoutValue": 39.3}
{"compound": "CC1(C)CCC(CN2CCN(c3ccc(C(=O)NS(=O)(=O)c4ccc(NCC5CCOCC5)c([N+](=O)[O-])c4)c(Oc4cnc5[nH]ccc5c4)c3)CC2)=C(c2ccc(Cl)cc2)C1 + COc1c(OCCCN2CCOCC2)ccc2c3n(c(=NC(=O)c4cnc(N)nc4)nc12)CCN3", "measurementUnits": "%", "readoutValue": 42}
{"compound": "CC(=O)c1c(C)c2cnc(Nc3ccc(N4CCNCC4)cn3)nc2n(C2CCCC2)c1=O + COc1c(OCCCN2CCOCC2)ccc2c3n(c(=NC(=O)c4cnc(N)nc4)nc12)CCN3", "measurementUnits": "%", "readoutValue": 38.2}

---

System: 953936-095-R-J2-PDC spheroids with HUVEC/MSC, viability
Test: Anticancer human tumor 953936-095-R-J2-PDC cell line growth inhibition [PI3K];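 also: spheroids exposed to compounds for seven days before read-out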
Conditions: second compound 0.1 µM; first compound 3.16 µM; stronger effect = lower value
quantity: viability, T/C (%)

{"compound": "C#Cc1c(F)ccc2cc(O)cc(-c3ncc4c(N5CC6CCC(C5)N6)nc(OCC56CCCN5CC(F)C6)nc4c3F)c12 (stereo not given) + Cc1nc(NC(=O)N2CCCC2C(N)=O)sc1-c1ccnc(C(C)(C)C(F)(F)F)c1", "quantity": "viability, T/C", "readoutValue": 61.9}
{"compound": "CC(C)NCC(C(=O)N1CCN(c2ncnc3c2C(C)CC3O)CC1)c1ccc(Cl)cc1 (stereo not given) + Cc1nc(NC(=O)N2CCCC2C(N)=O)sc1-c1ccnc(C(C)(C)C(F)(F)F)c1", "quantity": "viability, T/C", "readoutValue": 22.4}
{"compound": "CC(C)NCC(C(=O)N1CCN(c2ncnc3c2C(C)CC3O)CC1)c1ccc(Cl)cc1 (stereo not given) + CC(Nc1ncnc2nc[nH]c12)c1cc2cccc(Cl)c2c(=O)n1-c1ccccc1", "quantity": "viability, T/C", "readoutValue": 24.3}
{"compound": "C=CC(=O)N1CCN(c2nc(=O)n(-c3c(C)ccnc3C(C)C)c3nc(-c4c(O)cccc4F)c(F)cc23)C(C)C1 (stereo not given) + COc1c(OCCCN2CCOCC2)ccc2c3n(c(=NC(=O)c4cnc(N)nc4)nc12)CCN3", "quantity": "viability, T/C", "readoutValue": 20.4}
{"compound": "C[C@@H](NC(=O)c1ncnc(N)c1Cl)c1ncc(C(=O)Nc2cc(C(F)(F)F)c(Cl)cn2)s1 + COc1c(OCCCN2CCOCC2)ccc2c3n(c(=NC(=O)c4cnc(N)nc4)nc12)CCN3", "quantity": "viability, T/C", "readoutValue": 23}

---

Tested on: 953936-095-R-J2-PDC spheroids with HUVEC/MSC, viability
Assay: Anticancer human tumor 953936-095-R-J2-PDC cell line growth inhibition [PI3K];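 also: spheroids exposed to compounds for seven days before read-out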
Details: compound 0.0316 µM; stronger effect = lower value
Measured viability, T/C, listed per entry for reference.
quantity: viability, T/C

{"compound": "CC(=O)c1c(C)c2cnc(Nc3ccc(N4CCNCC4)cn3)nc2n(C2CCCC2)c1=O", "readoutValue": "96.6% [middle of 4 runs]"}
{"compound": "CC1(C)CCC(Nc2ncc(C(F)(F)F)c(-c3c[nH]c4c(P(C)(C)=O)c(C#N)ccc34)n2)CN1 (centres undefined)", "readoutValue": "51.7% [middle of 4 runs]"}
{"compound": "Cn1nccc1Nc1nccc(-c2ccn(C(CO)c3ccc(Cl)c(F)c3)c(=O)c2)n1 (centres undefined)", "readoutValue": "90.7% [middle of 4 runs]"}
{"compound": "C=CC(=O)N1CCN(c2nc(=O)n(-c3c(C)ccnc3C(C)C)c3nc(-c4c(O)cccc4F)c(F)cc23)C(C)C1 (centres undefined)", "readoutValue": "93.6% [middle of 4 runs]"}

---

System: 953936-095-R-J2-PDC spheroids with HUVEC/MSC, viability
Test: Anticancer human tumor 953936-095-R-J2-PDC cell line growth inhibition [PI3K];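 also: spheroids exposed to compounds for seven days before read-out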
Settings: second compound 1 µM; first compound 3.16 µM; stronger effect = lower value

{"molecule": "CNC(=O)c1ccc(N2C(=S)N(c3ccc(C#N)c(C(F)(F)F)c3)C(=O)C2(C)C)cc1F + CC(Nc1ccc2c(c1)OCCn1cc(N3C(=O)OCC3C(F)F)nc1-2)C(N)=O", "viability, T/C, %": 24.1}
{"molecule": "C[C@@H](NC(=O)c1ncnc(N)c1Cl)c1ncc(C(=O)Nc2cc(C(F)(F)F)c(Cl)cn2)s1 + COc1c(OCCCN2CCOCC2)ccc2c3n(c(=NC(=O)c4cnc(N)nc4)nc12)CCN3", "viability, T/C, %": 3.46}
{"molecule": "CC1(C)CCC(Nc2ncc(C(F)(F)F)c(-c3c[nH]c4c(P(C)(C)=O)c(C#N)ccc34)n2)CN1 (stereo not drawn) + COc1c(OCCCN2CCOCC2)ccc2c3n(c(=NC(=O)c4cnc(N)nc4)nc12)CCN3", "viability, T/C, %": 1.37}

---

Reported pIC50 values follow for various molecules
System: 953936-095-R-J2-PDC spheroids with HUVEC/MSC, viability
Test: Anticancer human tumor 953936-095-R-J2-PDC cell line growth inhibition [PI3K];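 also: spheroids exposed to compounds for seven days before read-out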
Conditions: curve of first compound; second compound 0.1 µM
pIC50: −log10 of the molar value.
quantity: pIC50

{"molecule": "Cn1ncnc1[C@H]1c2n[nH]c(=O)c3cc(F)cc(c23)N[C@@H]1c1ccc(F)cc1 + CC(Nc1ccc2c(c1)OCCn1cc(N3C(=O)OCC3C(F)F)nc1-2)C(N)=O", "quantity": "pIC50", "readoutValue": "< 7.00"}
{"molecule": "Cn1ncc(Cl)c1-c1cc(C(=O)NC(CN)Cc2cccc(F)c2)sc1Cl (stereo unspecified) + CC(Nc1ncnc2nc[nH]c12)c1cc2cccc(Cl)c2c(=O)n1-c1ccccc1", "quantity": "pIC50", "readoutValue": 6.21}
{"molecule": "CC(=O)c1c(C)c2cnc(Nc3ccc(N4CCNCC4)cn3)nc2n(C2CCCC2)c1=O + COc1c(OCCCN2CCOCC2)ccc2c3n(c(=NC(=O)c4cnc(N)nc4)nc12)CCN3", "quantity": "pIC50", "readoutValue": "> 9.50"}
{"molecule": "C[C@@H](NC(=O)c1ncnc(N)c1Cl)c1ncc(C(=O)Nc2cc(C(F)(F)F)c(Cl)cn2)s1 + CC(Nc1ncnc2nc[nH]c12)c1cc2cccc(Cl)c2c(=O)n1-c1ccccc1", "quantity": "pIC50", "readoutValue": "< 5.00"}
{"molecule": "CC1(C)CCC(CN2CCN(c3ccc(C(=O)NS(=O)(=O)c4ccc(NCC5CCOCC5)c([N+](=O)[O-])c4)c(Oc4cnc5[nH]ccc5c4)c3)CC2)=C(c2ccc(Cl)cc2)C1 + COc1c(OCCCN2CCOCC2)ccc2c3n(c(=NC(=O)c4cnc(N)nc4)nc12)CCN3", "quantity": "pIC50", "readoutValue": "> 7.50"}
{"molecule": "CCCS(=O)(=O)Nc1ccc(F)c(C(=O)c2c[nH]c3ncc(-c4ccc(Cl)cc4)cc23)c1F + CC(Nc1ncnc2nc[nH]c12)c1cc2cccc(Cl)c2c(=O)n1-c1ccccc1", "quantity": "pIC50", "readoutValue": 5.24}
